Origin of the recorded values: the supplement of paper PMC12042874

PROCEDURE_TEXT: amyloid nucleation score (Sup35N fusion, yeast selection) (log enrichment); library NNK3; higher = more nucleation; inactive = no reads after selection;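 further: zero at mode of non-aggregating sequences after 7 days selection at 30°C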
MEASUREMENT_KIND: amyloid nucleation score

>>> test_result("YQLFRFWDVRDSNHSKKIMQ")
"inactive"
>>> test_result("TKYTNPHERSIEMSLFRERQ")
"inactive"
>>> test_result("FGLEFWTYTSIRFWLEYKPH")
0.972
>>> test_result("YYIPFASFVSQTCY")
"inactive"
>>> test_result("DDGFYMSVGIVSWFC")
0.843

Kindly review the next substance as well.
In: amyloid nucleation score for `SREIYSMVMQSHLVQWGVIA` ?
Out: inactive

====

PROCEDURE_TEXT: amyloid nucleation score (Sup35N fusion, yeast selection) (log enrichment); library NNK1; higher = more nucleation; inactive = no reads after selection
Label 1.0 for high-side amyloid nucleation score (at or above 0.02) and 0.0 for low-side amyloid nucleation score (below it).

In: API: above_or_equal(metric=amyloid nucleation score, cutoff=0.02) for item `SVRVPWLASFCSKFMSGAYI`
Out: 1.0

In: API: above_or_equal(metric=amyloid nucleation score, cutoff=0.02) for item `FSSYPLGFRNRRDTVDMTIV`
Out: 0.0

In: API: above_or_equal(metric=amyloid nucleation score, cutoff=0.02) for item `FVGFGWYCLDFFHFLNASLG`
Out: 0.0

In: API: above_or_equal(metric=amyloid nucleation score, cutoff=0.02) for item `RAVGSDWGKVVFLLMNSEES`
Out: 1.0

====

Examples of substances with documented amyloid nucleation score follow.
PROCEDURE_TEXT: amyloid nucleation score (Sup35N fusion, yeast selection) (log enrichment); library NNK2; higher = more nucleation; inactive = no reads after selection
Provide a numeric answer; units are not to be included.

>>> test_result("CEGCHATKYRVRSWS")
1.01

Kindly review the next substance as well.
In: amyloid nucleation score for `MMIPFVMYYRFDGYVKRHTG` ?
Out: -0.512

====

PROCEDURE_TEXT: amyloid nucleation score (Sup35N fusion, yeast selection) (log enrichment); library NNK2; higher = more nucleation; inactive = no reads after selection
// map amyloid nucleation score onto a label; ranges band A = under 0.3, band B = from 0.3 up to 3, band C = 3 and over

>>> group("AQTWMAKTISKDAVGGSPLS")
"band A"
>>> group("VVFCGVFLCDCDNGESSSRY")
"band C"
>>> group("YAVLSLKAWCLSG")
"band C"
>>> group("CNNQRYVNNGITRNGRNDAG")
"band A"

In: Kindly state the category for this substance: `LWVVQTVDHTSKSSSVWSSL`
Out: band C

In: Kindly state the category for this substance: `SPDATGYTNKVLGSRLIRRR`
Out: band B

In: Kindly state the category for this substance: `SECENAFVGVPPWRTKILWS`
Out: band B

====

PROCEDURE_TEXT: amyloid nucleation score (Sup35N fusion, yeast selection) (log enrichment); library NNK3; higher = more nucleation; inactive = no reads after selection
MEASUREMENT_KIND: amyloid nucleation score

>>> test_result("TYDTGWKCREPNVTIFNVWL")
2.91
>>> test_result("AKWSGFYYVLMYFFMLHLRY")
"inactive"
>>> test_result("RHLTVWLL")
"inactive"
>>> test_result("YPSCRTSLSARHMVFQGITL")
"inactive"
>>> test_result("RRWPTPVCFNEG")
"inactive"

In: amyloid nucleation score for `VSPVGSSRWWHDLHVSLETS` ?
Out: inactive

In: amyloid nucleation score for `NVRLYHFSGET` ?
Out: 0.031

In: amyloid nucleation score for `QKAVIGM` ?
Out: inactive

====

PROCEDURE_TEXT: amyloid nucleation score (Sup35N fusion, yeast selection) (log enrichment); library NNK2; higher = more nucleation; inactive = no reads after selection
MEASUREMENT_KIND: amyloid nucleation score

Example substances with recorded amyloid nucleation score:
>>> test_result("GSKALVSGGFVSGVKYGKAI")
"inactive"
>>> test_result("WKFRNN")
"inactive"
>>> test_result("RGLLHFIFVITQYKGIYSNV")
"inactive"
>>> test_result("YMPPSCMSP")
"inactive"
>>> test_result("NYKYINVHGGYVSCLKREEE")
"inactive"

In: amyloid nucleation score for `RRWDHRIHGILSISDIIFLR` ?
Out: inactive

In: amyloid nucleation score for `VVGSFFCQNMKHLYRELRQS` ?
Out: inactive

In: amyloid nucleation score for `YLLNLEF` ?
Out: inactive

In: amyloid nucleation score for `WRSLLVLAFHLRLLYVSSMK` ?
Out: inactive

In: amyloid nucleation score for `VISYMFRSTGVFNT` ?
Out: 2.73

In: amyloid nucleation score for `NFTIHTWVYMHRVNPPGILN` ?
Out: inactive

In: amyloid nucleation score for `VPRFVCTHVDLIFGGNGCTF` ?
Out: 4.91

In: amyloid nucleation score for `NHTSNIGSRGTAFFWVLR` ?
Out: 7.19

====

Examples of substances with documented amyloid nucleation score follow.
PROCEDURE_TEXT: amyloid nucleation score (Sup35N fusion, yeast selection) (log enrichment); library NNK2; higher = more nucleation; inactive = no reads after selection
Provide a numeric answer; units are not to be included.

>>> test_result("FCLFQRDKTHSVWMGLKKFQ")
-1.06
>>> test_result("LLKGVASVQSTDAVRHMWSS")
0.252
>>> test_result("DIYPRLLEDVFYPFVQPHLF")
-0.505
>>> test_result("IEVGRHRWALWRVAQSRLIG")
0.308

Kindly review the next substance as well.
In: amyloid nucleation score for `RSFHVEYILM` ?
Out: 3.23

====

PROCEDURE_TEXT: amyloid nucleation score (Sup35N fusion, yeast selection) (log enrichment); library NNK1; higher = more nucleation; inactive = no reads after selection
MEASUREMENT_KIND: amyloid nucleation score

>>> test_result("STGPAFDSKGVSTAMSRASF")
"inactive"
>>> test_result("DRRRNCYFIRLWQGLGYIS")
"inactive"
>>> test_result("TKWLLP")
0.504
>>> test_result("QLEFVWLILTYHEGHYRIGK")
"inactive"

====

PROCEDURE_TEXT: amyloid nucleation score (Sup35N fusion, yeast selection) (log enrichment); library NNK1; higher = more nucleation; inactive = no reads after selection
MEASUREMENT_KIND: amyloid nucleation score

Example substances with recorded amyloid nucleation score:
>>> test_result("RSDNSCRRLLEDWRSWRRAV")
"inactive"
>>> test_result("DLFDFFRRRYHFRCFVSSIW")
-1.52
>>> test_result("GLGCYVKNKTHESYARSTAH")
-0.671
>>> test_result("CYMKNKLSFIM")
"inactive"
>>> test_result("DLFFIG")
0.188
>>> test_result("WLMAKGRYLSAFTVSFIRSY")
-1.28
>>> test_result("DSPNVVQLLKYTLRYEARLG")
0.877
>>> test_result("PCYWQPPRRVAVATLSAAAL")
-0.312
>>> test_result("GLWLQL")
0.216
>>> test_result("TYYNLYSVRGGCFAHDVLAC")
0.234

In: amyloid nucleation score for `ALSYGIVAMMVVIGPGIVVC` ?
Out: 0.388

In: amyloid nucleation score for `LSVNICKKY` ?
Out: 3.5

In: amyloid nucleation score for `LMWSMPNGTSYGNGPVEWTG` ?
Out: -0.515

====

Examples of substances with documented amyloid nucleation score follow.
PROCEDURE_TEXT: amyloid nucleation score (Sup35N fusion, yeast selection) (log enrichment); library NNK1; higher = more nucleation; inactive = no reads after selection
Provide a numeric answer; units are not to be included.

>>> test_result("LYSVRLRSVSK")
-0.376

Kindly review the next substance as well.
In: amyloid nucleation score for `LLCTYISTEAPIVTFLRLTY` ?
Out: -0.667

====

PROCEDURE_TEXT: amyloid nucleation score (Sup35N fusion, yeast selection) (log enrichment); library NNK3; higher = more nucleation; inactive = no reads after selection
MEASUREMENT_KIND: amyloid nucleation score

>>> test_result("PSINWASVTVLGCAHSNFRC")
2.29
>>> test_result("NENFTNAQQNFYDCVF")
"inactive"
>>> test_result("HQFFVVNSRDWLGHSSKFRF")
0.814
>>> test_result("EIMGICTLTVIFCKC")
1.58
>>> test_result("LSPCGL")
"inactive"
>>> test_result("ICLDKITDAIYMDYNRAFSC")
"inactive"
>>> test_result("KMSAPWEGQCECCGCDF")
"inactive"
>>> test_result("HFLFVMSCPKWAVRFLAFVD")
"inactive"
>>> test_result("LKWQVRHLWGNDVVGHRYTH")
-0.546
>>> test_result("YWKFWIKSDVYCRSISGWCR")
"inactive"

In: amyloid nucleation score for `IDGSYAFSKKPDPNSVKYIM` ?
Out: inactive

In: amyloid nucleation score for `FRVVNMSWCAPNLTLRFKYL` ?
Out: inactive

In: amyloid nucleation score for `RTEKMGRDTKRYCVPHINFG` ?
Out: inactive

In: amyloid nucleation score for `HTHVSTTTGIFSDRICEW` ?
Out: inactive
